The reported numbers originate from PubChem BioAssay (NCI).

System: SK-OV-3 ovarian
Please state which outcome applies, choosing from Y for active, N for inactive

Please review the entries below; each comes with its answer.
# Compound, Assigned Category
rows = [
    ("CN[C@]12CC3(C=CC(=O)C=C3)O[C@@]1(Cc1ccc(OC)cc1)N(C)C(=O)N2", "N"),
    ("CN1CCC[C@@H]1CCO[C@](C)(c1ccccc1)c1ccc(Cl)cc1", "N"),
]

Request: Look up the recorded call for `CCOC(=O)/C(=C/c1ccc([N+](=O)[O-])cc1)C(=O)c1ccccc1` in this test.
Response: N

Request: Name the outcome recorded for CC1(C)CC(=O)C2=C(C1)NC(SSC1=C(C#N)C(c3ccc(F)cc3)C3=C(CC(C)(C)CC3=O)N1)=C(C#N)C2c1ccc(F)cc1 (stereo not drawn) in the assay.
Response: N

---

Test system: UACC-62 melanoma
Experiment: NCI tumour cell line growth inhibition, 48 h
Experimental Readout: TGI (µM)
Respond with the bare value in µM.

# Molecule, Target Or Test System, TGI / µM
measured = [
    ("COc1ccc(-c2nn(-c3cccc(NC(=O)Nc4ccc(Cl)c(C(F)(F)F)c4)c3)cc2-c2ccncc2)cc1Cl", "UACC-62 melanoma", 5.01),
    ("N#CC1=C(S)N(C2OC(CO)C(O)C(O)C2O)C(c2ccccc2)=CC1c1ccccc1 (stereo not given)", "UACC-62 melanoma", 62.7),
]

Could you now consider this next molecule?
Request: Kindly indicate its recorded TGI. Item: `O=S(=O)(/N=C(\NO)Nc1ccc(Cl)cc1)c1ccc(S(=O)(=O)c2ccccc2)s1`
Response: 33.7

---

Tested on: MDA-N
Test: NCI tumour cell line growth inhibition, 48 h
Below, each entry is listed with its recorded TGI.

Answered cases to consult:
# Compound, Experimental Readout, Observed Measurement
measured = [
    ("CCOC(=O)C(NC(=O)c1ccccc1)(Nc1ccc(S(=O)(=O)Nc2nc(C)cc(C)n2)cc1)C(F)(F)F (stereo not given)", "TGI", "> 100 µM"),
    ("O=C1CC(CC(O)C(O)C(O)CO)CC(=O)N1 (stereo not given)", "TGI", "> 100 µM"),
    ("CN(/N=C/c1cccs1)c1ccc(Cl)cc1[N+](=O)[O-]", "TGI", "> 100 µM"),
    ("CC1(C)CC(=O)C2=C(C1)NC(SSC1=C(C#N)C(c3ccc(F)cc3)C3=C(CC(C)(C)CC3=O)N1)=C(C#N)C2c1ccc(F)cc1 (stereo not given)", "TGI", "48.4 µg/mL"),
    ("COC(=O)c1ccc(N=NN(C)COc2ccc(C#N)cc2)cc1", "TGI", "> 100 µM"),
]

Request: Answer with reported TGI of `O=C1CCCC2=C(N1)C(=O)C=CC2=O`
Response: 30.9 µM

Request: Determine from records and report TGI for Nc1ncnc2c1nc(-c1ccccc1)n2C1OC(CO)C(O)C1O (stereo not given)
Response: > 100 µM

Request: Fill in reported TGI for this entry: `O=c1c2cc([N+](=O)[O-])ccc2n(Cc2ccccc2)n1Cc1ccccc1`
Response: 21.2 µM

Request: Answer with reported TGI of CCCCOC(=O)C1CN2C=CC=NC2=NC1(C(F)(F)F)C(F)(F)F (stereo not given)
Response: > 100 µM

Request: Supply recorded TGI for CN1C2CCC1C(C(O)c1ccccc1[N+](=O)[O-])C(=O)C2 (stereo not given) here.
Response: 75.7 µM

---

Consider compounds characterized by their GI50 with MALME-3M melanoma.

The cases that follow already have their GI50 on record.
# Line Notation, Observed Measurement
data = [
    ("COc1ccc(-c2cnc3ccnn3c2-c2cc(OC)c(OC)c(OC)c2)cc1", "5.41 µM"),
    ("COc1cc(/C=C/C(=O)c2ccc(Nc3ncnc4ccccc34)cc2)cc(OC)c1", "23.8 µM"),
    ("COc1cc2ccc3c4c(OC)cc(OC)c(OC)c4c(=O)n(C)c3c2cc1OC", "13.4 µM"),
]

Now for a further compound.
Request: Retrieve GI50 on MALME-3M melanoma; query `O=C1C(=O)c2ccccc2-c2ccccc21`
Response: 1.79 µM

---

Tested on: HOP-62 NSCLC
Answer with one of the outcomes active, inactive

Reference set (3 entries):
# Line Notation, Assigned Category
data = [
    ("ClCc1ccc(-c2ccc(Cn3cnc4c(Cl)nc(Cl)nc43)cc2)cc1", "inactive"),
    ("O=C1c2cc3c(cc2-c2c1c1ccc(Cl)cc1c(=O)n2C[C@H](O)[C@@H](O)[C@H](O)CO)OCO3", "active"),
    ("O=C(O)c1ccc2c(c1Nc1ccccc1)C(=O)c1ccccc1C2=O", "inactive"),
]

Request: Hi, sorry to bother you, what did the test record for `C/C(CC(=O)NNc1ccc([N+](=O)[O-])cc1)=N\Nc1ccc([N+](=O)[O-])cc1` ?
Response: inactive

Request: Test call for this compound, please: `CC(=O)O[C@H]1C(=O)O[C@@H]2C[C@H]3C(C)=CC(=O)[C@@H](O)[C@]3(C)[C@H]3[C@@]4(O)OC[C@]32[C@@H]1[C@@H](C)[C@H]4O`
Response: active

Request: Record request — test call for `O=C(Nc1nccs1)c1cc2c(cc1Cl)Sc1nccn1S2(=O)=O`
Response: inactive

Request: Hey, what did the test say about `COc1ccc(-c2nn(-c3cccc(NC(=O)Nc4ccc(Cl)c(C(F)(F)F)c4)c3)cc2-c2ccncc2)cc1Cl` ?
Response: inactive

---

Test system: 786-0 renal
Experiment: NCI tumour cell line growth inhibition, 48 h
Measured TGI, listed per entry.

Would you please look over these solved cases?
# Compound, Experimental Readout, Observed Measurement
data = [
    ("O=C(/C=C\\c1cccc2ccccc12)c1cccs1", "TGI", "22.5 µM"),
    ("CCOC(=O)c1c(-c2ccccc2)[n+](=O)c2ccc(Cl)cc2n1[O-]", "TGI", "19.9 µM"),
    ("CC(C)(C)[Si](C)(C)OCCCCC1CC2(S(=O)(=O)C3=CC=C=C=C3)ON1CC2S(=O)(=O)c1ccccc1 (centres undefined)", "TGI", "> 100 µM"),
]

Here's the next entry for you.
Request: Specify reported TGI for the compound shown: `CCOC(=O)CC(=O)C(=O)NNC1=NCCCN1`
Response: > 100 µM

---

System: SNB-19 CNS
Experiment: NCI tumour cell line growth inhibition, 48 h
Experimental Readout: TGI

Please review the entries below; each comes with its answer.
# Molecule, Experimental Readout, Observed Measurement
records = [
    ("O=C(O)C1NCCc2c1[nH]c1ccccc21 (stereo not given)", "TGI", "> 100 µM"),
    ("COc1ccc(N=C2C(=O)C3=C(OC(C)(C)CC3)c3ccccc32)cc1", "TGI", "2.36 µM"),
    ("O=C(Nc1ccccc1)Nc1cccc(-n2cc(-c3ccncc3)c(-c3ccc(O)c(Cl)c3)n2)c1", "TGI", "> 100 µM"),
    ("CC(=O)OCCCCn1cnc2nc(Nc3ccccc3)nc(Cl)c21", "TGI", "> 100 µM"),
]

Request: Return value of TGI for input NC1CC(=O)c2c(Cl)sc(Cl)c21 (stereo not given) , no commentary.
Response: 42.2 µM

Request: Consider the molecule `S=c1nc2[nH]ncc2c(N/N=C/c2ccccc2)[nH]1` and give its recorded TGI.
Response: > 100 µM

Request: Consider the molecule `COc1ccc(-c2cnc3ccnn3c2-c2cc(OC)c(OC)c(OC)c2)cc1` and give its recorded TGI.
Response: > 100 µM

Request: Dear colleague, please send me the reported TGI for `COc1ccc(/C=C2\CN(Cc3cn(CCCNc4ccnc5cc(Cl)ccc45)nn3)C/C(=C\c3ccc(OC)c(OC)c3)C2=O)cc1OC` when you can.
Response: 7.62 µM

Request: Tell me its TGI given `CN(C)CCCN(c1nc(C(Cl)(Cl)Cl)ns1)c1nc(C(Cl)(Cl)Cl)ns1` as the entry.
Response: 7.3 µM

Request: Tell me its TGI given `Cc1cccc(N=Nc2c(C)nn(C(=O)CC(=O)Nc3ccccc3)c2C)c1` as the entry.
Response: > 100 µM

Request: Give the reported TGI for this molecule. `CC(=O)OCc1cc(OC(C)=O)cnc1COC(C)=O`
Response: > 100 µM

Request: Annotate the molecule `CCOc1ccccc1N=Nc1c(-c2ccccc2)nn(C(=O)CC(=O)Nc2cccc(Cl)c2)c1-c1ccccc1` with its measured TGI.
Response: > 100 µM

---

System: HCT-15 colon
Experiment: NCI tumour cell line growth inhibition, 48 h
Experimental Readout: TGI

# Compound, TGI
rows = [
    ("CCC(C)C1NC(=O)C2CCCN2C(=O)C(CC2CO2)OC(=O)CCNC(=O)C(C)N(C)C(=O)C(C(C)C)N(C)C1=O (stereo unspecified)", "> 100 µM"),
    ("COC(=O)C(C)NP(=O)(OCc1ccc(Cn2cnc3c(=O)[nH]c(N)nc32)cc1)Oc1ccccc1 (stereo unspecified)", "> 100 µM"),
    ("COC1C=CC(C(=O)[N+]2=Cc3[nH]c4ccccc4c3CC2)O1 (stereo unspecified)", "> 100 µM"),
    ("Cn1c(=O)c2c(no[n+]2[O-])n(C)c1=O", "> 100 µM"),
]

Next compound, please.
Request: In one line, give reported TGI of the entry `COc1[nH]c(C(Cl)(Cl)Cl)c(Cl)c(=O)c1Cl` .
Response: > 100 µM
